assayed target: STARD3 (Homo sapiens)
Construct: STARD3(216-444); made in house; host or cells: E. coli BL21(DE3)
Sequence (Q14849 216-444): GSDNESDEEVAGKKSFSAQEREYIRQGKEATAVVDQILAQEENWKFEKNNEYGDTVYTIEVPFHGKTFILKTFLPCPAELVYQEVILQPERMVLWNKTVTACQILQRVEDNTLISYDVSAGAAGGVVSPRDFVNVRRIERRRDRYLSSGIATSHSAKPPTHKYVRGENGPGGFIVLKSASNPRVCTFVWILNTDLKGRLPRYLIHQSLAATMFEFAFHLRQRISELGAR
experimental protocol: Differential scanning fluorimetry (DSF), STARD3
Format: binding
assay conditions: single dose, Dose = 10 µM
measure: STARD3 (DSF) ΔTm

Can you share its STARD3 (DSF) ΔTm? I mean this compound: C[C@]12CC[C@@H](O)C[C@H]1CCc1c2nc2ccccc2c1-c1ccccc1 [Compound 2b]
0.0566 °C

Consider the compound shown here: CCOC(=O)c1ccc2[nH]c3c(c2c1)CC[C@@H]1C[C@H](O)CC[C@]31C [Compound 10k] What is its recorded STARD3 (DSF) ΔTm?
0.08 °C

If you can, please state the reported STARD3 (DSF) ΔTm value of C[C@]12CC[C@@H](O)C[C@H]1CCc1c2[nH]c2ccc(Br)cc12 [Compound 10b] .
-0.0462 °C

====

For each of the molecules below, state its STARD4 (DSF) ΔTm.
assayed target: STARD4 (Homo sapiens, UniProt Q96DR4, C75S)
Construct: STARD4(2-205; C75S); made in house; host or cells: E. coli BL21(DE3)
Sequence (Q96DR4 2-205 C75S): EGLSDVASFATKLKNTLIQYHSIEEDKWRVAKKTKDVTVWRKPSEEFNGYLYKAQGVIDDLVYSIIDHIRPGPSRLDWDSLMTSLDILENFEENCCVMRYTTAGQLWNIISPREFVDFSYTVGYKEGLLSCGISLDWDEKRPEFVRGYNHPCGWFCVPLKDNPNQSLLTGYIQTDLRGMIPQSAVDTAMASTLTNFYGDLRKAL
experimental protocol: Differential scanning fluorimetry (DSF), STARD4
Format: binding
assay conditions: single dose, Dose = 10 µM
Excerpt: Protein expression constructs Human ASTER domains of Aster-A(359-547), -B(364-552) and -C(318-504) were subcloned into a pGEX-6p-2rbs vector, thus introducing the cloning artifact ‘GPLGS’.3 The pGEX-6P-1-GST-OSBP(377- […] a gift from James H. Hurley (University of California).4 The pHIS_2His6_Thrombin_STARD4(2-205;C75S) plasmid was a gift from Young Jun Im (Chonnam National University).5 STARD5A was a gift from Nicola Burgess-Brown (Addgene plasmid #42392; http://n2t.net/addgene:42392; […]
Hi! Could you send only the number? It should be in °C, unit omitted.

// lookup STARD4 (DSF) ΔTm | system=STARD4 (Homo sapiens, UniProt Q96DR4, C75S) | key= CCOC(=O)c1ccc2[nH]c3c(c2c1)CC[C@@H]1C[C@H](O)CC[C@]31C [Compound 10k]
-0.04

Tell me reported STARD4 (DSF) ΔTm for `Cc1c2c(nc3cc(Br)ccc13)[C@@]1(C)CC[C@@H](O)C[C@H]1CC2` , tested with STARD4 (Homo sapiens, UniProt Q96DR4, C75S).
0.0489

Write down the reported STARD4 (DSF) ΔTm of C[C@]12CC[C@@H](O)C[C@H]1CCC(=O)c1cc(Cl)cc(F)c1NC2=O [Compound 11f] , test system: STARD4 (Homo sapiens, UniProt Q96DR4, C75S).
-0.0242

I'm curious: which STARD4 (DSF) ΔTm was measured for CC(C)Oc1ccc(C(=O)Nc2nc3c(s2)CN(C(=O)OC(C)(C)C)CC3)cc1 [Autogramin-2, reference compound] tested on STARD4 (Homo sapiens, UniProt Q96DR4, C75S)?
0.2

Give STARD4 (Homo sapiens, UniProt Q96DR4, C75S) STARD4 (DSF) ΔTm for `C[C@]12CC[C@@H](O)C[C@H]1CCc1c2nc2ccccc2c1-c1ccccc1`
-0.0888

Please provide the recorded STARD4 (DSF) ΔTm for C[C@]12CC[C@@H]3C[C@H]1CC[C@@]21C(=Nc2ccc(N(Cc4ccccc4)c4ccc5c(c4)[C@@]46CC[C@@H]7C[C@@H](CC[C@@]74C)OC6=N5)cc21)O3 [Compound 20a] , tested on STARD4 (Homo sapiens, UniProt Q96DR4, C75S).
0.0479

Give recorded STARD4 (DSF) ΔTm with STARD4 (Homo sapiens, UniProt Q96DR4, C75S) for the following molecule: CC12CCC3CC1CCC21C(=Nc2ccc(N4CCOCC4)cc21)O3 (single isomer, unassigned; (-)) [(−)-19a]
1.3
